Below are pIC50 measurements against Autotaxin (Homo sapiens, UniProt Q13822) drawn from the literature.
pIC50: −log10 of the molar value.
Lab note: anything with pIC50 at or over 8 counts as criterion met; the rest go in criterion not met.

Here's what some known entries look like.
Please indicate if the recorded pIC50 for CCCCCC1CN(CC(=O)N(C)c2ccncc2)C(=O)c2cc(-c3ccc(Cl)cc3)nn21 (stereo not drawn) meets or exceeds 8.
criterion not met

Input `Cc1noc(NC(=O)c2ccc(NCc3cccc(Cl)c3Cl)nn2)c1C`
criterion not met

Same lookup for `Cc1cc(OCc2n[nH]c3cccnc23)c(C(C)(C)C)cc1Cl` , please.
criterion not met

Field entry: `C[C@H]1CN(CC(=O)N(C)CC(=O)O)C(=O)c2cc(-c3ccc(Cl)cc3)nn21`
criterion not met

Same read-out for `O=C(c1ccc(NCc2cccc(OC(F)(F)F)c2)nn1)N1CCC12COC2` ?
criterion not met

Record: `CC(C)(C)C(=O)Nc1cc(C#N)ccc1COC(=O)N1CCc2nc(C(=O)N3CCc4[nH]nnc4C3)nn2CC1`
criterion not met

// repeat for `CCOc1nc(C(=O)N2C[C@@H]3[C@H]4CN(C(=O)c5ccc6[nH]nnc6c5)C[C@H]4[C@@H]3C2)cc2ccccc12` and report
criterion met

Others:
Could you tell me if the measured pIC50 of CCCCCC1CN(CC(=O)N2CCCCC2CC(=O)O)C(=O)c2cc(-c3ccc(Cl)cc3)nn21 (stereo not drawn) reaches 8 or more?
criterion met

====

Compiled literature pIC50, tested on Autotaxin (Homo sapiens, UniProt Q13822).
pIC50: −log10 of the molar value.

Would you please look over these solved cases?
Recorded pIC50 of `Cc1c(Sc2cccc(C(=O)O)c2F)c2ccc(Cl)c(F)c2n1CC(=O)N1CC2(CC2)c2ccccc21` , please.
≥ 6.30

Next molecule: CCCCC1CN(Cc2ccc(C#N)cc2)C(=O)c2cc(N3CCC(F)(F)CC3)nn21 (centres unmarked)
6.00 to 7.00

Same again, this time with `COc1ccc(NC2(C)CCN(C(=O)[C@H](NC(=O)c3cccc(OC(F)(F)F)c3)C(C)C)CC2)cc1`
6.30 to 7.00

Would you kindly repeat that for `O=P(O)(O)CCCNCc1ccc2c(C(F)(F)F)c(O[C@H]3CC[C@@H](C(F)(F)F)CC3)ccc2c1` ?
≥ 7.00

Further cases:
# pIC50 lookup, item CCCCCC1CN(CC(=O)N2CCNCC2)C(=O)c2cc(-c3ccc(Cl)cc3)nn21 (centres unmarked)
6.00 to 7.00

Further, for `Cc1cc(OCc2n[nH]c(=O)n2C)c(-c2ncco2)cc1Cl` ?
7.11

Do the same for `COc1cc(C(=O)N2C[C@@H]3CN(C(=O)c4ccc5[nH]nnc5c4)C[C@H]3C2)cc2ccccc12` please
7.62

Thanks! And `CC(C)Oc1cc(C(=O)N2C[C@@H]3[C@H]4CN(C(=O)c5ccc6[nH]nnc6c5)C[C@H]4[C@@H]3C2)cc2[nH]ccc12` ?
7.39

====

Literature roundup of Autotaxin (Homo sapiens, UniProt Q13822) data, read-out IC50.

Past entries and their recorded results:
Data request, read-out IC50, for `CC(C)[C@@H](NC(=O)c1cc(C(F)(F)F)ccc1F)C(=O)N1CCC2(CC1)C(=O)N(C)C(=O)N2Cc1ccc(F)cc1`
< 500 nM

What do you have for CCCCCC1CN(CC(=O)N(C)CC(=O)O)C(=O)c2cc(-c3ccc(Cl)cc3)nn21 (stereo not shown) ?
10 to 100 nM

Another compound to check: `O=C(O)[C@H]1CC[C@H](CNCc2ccc3c(C(F)F)c(O[C@H]4CC[C@@H](C(F)(F)F)CC4)ccc3c2)CC1`
≤ 250 nM

Next, consider the following compound.
Which IC50 is listed for `CC(C)[C@@H](NC(=O)c1cc(C(F)(F)F)ccc1F)C(=O)N1CCC(Nc2ccc3[nH]ncc3c2)CC1` ?
5000 to 10000 nM
